Here, each record is paired with measured pull-down binding Z-score data.
Test system: TO-3-N3 (biotin conjugate)
Experiment: pull-down binding Z-score (relative to library population); higher = stronger binding
Conditions: RNA library: Library-2

The cases that follow already have their pull-down binding Z-score on record.
query.sequence	pull-down binding Z-score
GUUAAUGCCUAUAUUAACCUUGACCAGGGCUUUAAC	0.238
CCGCCUUUGUGCUGUCCUUGGAGGGAGG [hsa-mir-1910]	0.209
UGGCGGCGGCGAGGACACCGCCGCU [hsa-mir-4469]	1.53
GCCCGGGCACCGCCCCUU [hsa-mir-718]	-0.0729
GCUGAACCCCUGCCCCUGGAGCCCCCAGCAGGGCCCUC [hsa-mir-7162]	0.665
CGUGGUAUUCUUGCUAGUUACACUAGCCAUCCUUACUGCG	-0.913
UGUUGGUUGAAGAUGCCUUUCAACA [hsa-mir-552]	-0.807
GGUGGAAUUGGACGAUUCUACAUCCAAAUGUGCACC [IAV_invivo_NP_5_Motif_3+IAV_invivo_NP_5_Motif_3]	-0.714

Request: I have this sequence here, ACAUGCAGUAUUUGG [hsa-mir-1302-8] , and I need its recorded pull-down binding Z-score.
Result: -0.326

Request: Sample GGAUAGAAACUAUUAUUCUAUUC [hsa-mir-664a] — what was its pull-down binding Z-score?
Result: -0.357

Request: I have this sequence here, GUGGUAGUUAUACUAAUGACAAAGCUUGCCCAUUGAUUGCUGC [DMSMaPseq_invitro_SARS-CoV-2_Motif_161] , and I need its recorded pull-down binding Z-score.
Result: 0.409

###

Test system: TO-3-N3-2 (biotin conjugate)
Assay: pull-down binding Z-score (relative to library population); higher = stronger binding
Conditions: RNA library: Library-2
Response field class: string, computed from recorded pull-down binding Z-score by ranges class 1 (below -0.3), class 2 (-0.3 to below -0.05), class 3 (-0.05 or more)

Request: Lab note: sort UGCCAUACUUUUAACGGCA [hsa-mir-548i-4] into the matching pull-down binding Z-score band.
Result: class 2

Request: Field: class (pull-down binding Z-score) — entry: GAUUGCUAAUAGUACCAAUC [hsa-mir-34c]
Result: class 2

Request: Looking at GACUUAUGAAAACUAUAGGUC , which class would you pick?
Result: class 3

Request: Form field 'band' for AUUACUUGUGUUCUAUAUAAAGUAUU [hsa-mir-92a-2]
Result: class 3

###

Reported pull-down binding Z-score is given for each of the following sequences.
Tested on: TO-N3 (biotin conjugate)
Assay: pull-down binding Z-score (relative to library population); higher = stronger binding
Settings: RNA library: Library-2

Request: # returns recorded pull-down binding Z-score (system: TO-N3 (biotin conjugate)) for CCAUUUACUUGAACCUUUAGGAGUGA [hsa-mir-489]
Result: 0.319

Request: Recall the recorded pull-down binding Z-score for AAGCUGUGUGUGUCCAGC [hsa-mir-4732] with TO-N3 (biotin conjugate) and state it.
Result: 0.33

Request: Request body: readout pull-down binding Z-score, system TO-N3 (biotin conjugate), query GAGCUGGAAGGAGUGGGCCUGGCUC [hsa-mir-6847] . Return the value.
Result: 0.634

Request: # value lookup — system TO-N3 (biotin conjugate), readout pull-down binding Z-score, item UCCGGCCGGCCAUGCUGGCGGGG [hsa-mir-762]
Result: -0.676

###

In this section, each of the sequences is paired with its reported pull-down binding Z-score.
Tested on: TO-N3 (biotin conjugate)
Assay: pull-down binding Z-score (relative to library population); higher = stronger binding
Conditions: RNA library: Library-2
Give only the figure.

In the examples that follow, each entry is paired with its recorded pull-down binding Z-score.
query.sequence	pull-down binding Z-score
GCAGAGACAGAAGAAACAGCAAACUGUGACUCUUCUUCCUGC	-0.156
CAGACUUUAUGAGUGUCUCUAUAGAAAUAGAGAUGUUGACACAGACUUUGUGAAUGAGUUUUACGCAUAUUUGCGUAAACAUUUCUCAAUGAUGAUACUCUCUG	-1.21
CCCGGAAAUAGCAGGAAGACCCAAAGUAAGAGAUCAAGCUGGG [IAV_invivo_HA_4_Motif_10+IAV_invivo_HA_4_Motif_10]	-0.157
CUUUGUCUGACUACAAUAUUCAAAAG [hsa-mir-4426]	-0.0832
GGGAACUGGUGAGUUGUACAUAGAAAUGCUUUCUAACUCC [hsa-mir-4499]	0.112

Request: Can you look up the measured pull-down binding Z-score of GUGCGGCACAGGCACUAGUACUGAUGUCGUAU [SHAPE_invitro_SARS-CoV-2_Motif_246] for me?
Result: 0.568

Request: Can you look up the measured pull-down binding Z-score of CUCUGGUCAGUUGGGAGUCUGAG [hsa-mir-143] for me?
Result: -0.0514

Request: What does the data say about its pull-down binding Z-score? Entry: CCCGAGCUGGGCAGCAUGAAGGGCCUCGGG [hsa-mir-486-2]
Result: 1.64

###

Tested on: TO-3-N3 (biotin conjugate)
Experiment: pull-down binding Z-score (relative to library population); higher = stronger binding
Details: RNA library: Library-2
Decide using pull-down binding Z-score: a value greater than or equal to -0.2 is yes (1), a smaller one is no (0).

These recorded examples may help you get a feel for the data.
query.sequence	target.or.system	label
GCACUACAGCUAAGGCUAUGGAGC [IAV_invivo_M1_M2_7_Motif_13+IAV_invivo_M1_M2_7_Motif_13]	TO-3-N3 (biotin conjugate)	no (0)
AUUGGCUUGGAUUCUGCAAAGCCU [hsa-mir-7151]	TO-3-N3 (biotin conjugate)	no (0)

Request: Reported pull-down binding Z-score reaches at least -0.2 for GAUGGAGGAAUCACAUGAAUUCAUC [hsa-mir-2115] ?
Result: no (0)

Request: Is reported pull-down binding Z-score greater than or equal to -0.2 here: ACAUAGCAGUGGUGUUACCCGUGAACUCAUGCGUGAGCUUAACGGAGGGGCAUACACUCGCUAUGU
Result: yes (1)

Request: Determine whether this sequence has pull-down binding Z-score no lower than -0.2: GCUUUCUUUGGC [IAV_invivo_NS1_NEP_8_Motif_2+IAV_invivo_NS1_NEP_8_Motif_2]
Result: yes (1)

Request: Does the sequence GAGUGCUAUCUAACCUUAACUUGCCUGGUUGUGAUGGUGGCAGUUUGUAUGUAAAUAAACAUGCAUUCCACACACCAGCUUUUGAUAAAAGUGCUU [DMSMaPseq_invitro_SARS-CoV-2_Motif_343] have recorded pull-down binding Z-score that is -0.2 or more?
Result: no (0)

Request: Does the sequence CUAACAUGCUUAG [SHAPE_invitro_SARS-CoV-2_Motif_280] have recorded pull-down binding Z-score that is -0.2 or more?
Result: yes (1)

Request: Is reported pull-down binding Z-score greater than or equal to -0.2 here: GGGUGAUACACAAGCCUGACCCUCCC [hsa-mir-6793]
Result: yes (1)

Request: Quick check: does GCUUCUAGAAAGUGAACUCGUAAUCGGAGCUGUGAUCCUUCGUGGACAUCUUCGUAUUGCUGGACACCAUCUAGGACGC have pull-down binding Z-score greater than or equal to -0.2?
Result: yes (1)

Request: Answer whether pull-down binding Z-score of UCUUUCAUGGGA [DMSMaPseq_invitro_SARS-CoV-2_Motif_300] is greater than or equal to -0.2.
Result: yes (1)

Request: Could you tell me if the measured pull-down binding Z-score of UGCUGAUGUCAUCAGUCAUAACUUCUGCG [hsa-mir-6854] reaches -0.2 or more?
Result: yes (1)

Request: Could you tell me if the measured pull-down binding Z-score of AGGUUGGUAUGCAAAAGUAUUCUACACUCCAGGGACCACCUGGUACUGGUAAGAGUCAUUUUGCUAUUGGCCU reaches -0.2 or more?
Result: no (0)

Request: Assess whether reported pull-down binding Z-score for ACCUUGAAGGAAAACAGGGU sits at -0.2 or higher.
Result: yes (1)

Request: Does GGACAAUUCACCUAAUUUAGCAUGGCCUCUUAUUGUAACAGCUUUAAGGGCCAAUUCUGCUGUCAAAUUACAGAAUAAUGAGCUUAGUCC have a reported pull-down binding Z-score of at least -0.2?
Result: no (0)

Request: Given the entry AGUCAGACAAAUCGCUCCAGGGCAAACUGGAAAGAUUGCUGAUU , answer whether its pull-down binding Z-score meets or surpasses -0.2.
Result: yes (1)

###

System: TO-N3 (biotin conjugate)
Assay: pull-down binding Z-score (relative to library population); higher = stronger binding
Conditions: RNA library: Library-2
Dear colleague, classification is by pull-down binding Z-score, with ranges listed here: lo: < -0.7; med: ≥ -0.7 and < -0.03; hi: ≥ -0.03

Example cases with answers are listed next.
query.sequence	label
GCUAUGCAAAUGGC	lo
CAACUCUCAUGAAGUGUGAUCAUUGUGGUGAAACUUCAUGGCAGACGGGCGAUUUUGUUAAAGCCACUUGCGAAUUUUG	med
CUGUAGCUGCAUUUCACCAAGAAUGUAGUUUACAG [DMSMaPseq_invitro_SARS-CoV-2_Motif_500]	hi
GGUUGGGAAAUUGUUAAAUUUAUCUCAACC	med
GUUCGCUUAAUUUAUGACGAAUC [hsa-mir-487a]	med

Request: # bin lookup: classify UGGCCCCGAUUUCAGCUAUGGUUA [SHAPE_invitro_SARS-CoV-2_Motif_146] by its pull-down binding Z-score
Result: med

Request: Which category does the recorded pull-down binding Z-score put ACAAUGGCAGACCUCGUCUAUGCUUUAAGGCAUUUUGAUGAAGGUAAUUGU in?
Result: lo

Request: The entry to classify is GACUCUGAGCCAGUGCUCAAAGGAGUC ; which class holds it?
Result: med

Request: Please indicate the class for GUCUCUGAAGAAGUAGUGGAAAAUCCUACCAUACAGAAAGAC based on its pull-down binding Z-score.
Result: hi

Request: Which category fits this record: UUCUAAUGCCAAGAA [hsa-mir-1279]
Result: hi

Request: # classify by pull-down binding Z-score band: GAAAACUUUGGAGAAAAAUUUUC [hsa-mir-4659a]
Result: lo
